// data source = PubChem BioAssay (NCI)

system: UO-31 renal; assay: NCI tumour cell line growth inhibition, 48 h
The reader will find reported TGI values listed item by item below.
Unit µM implied. Number only.

Below, 3 molecules whose answers are already recorded.
Cn1cc(-c2cc(N)n3nc(-c4cn(C)c5ccccc45)cc3n2)c2cc(Cl)ccc21 ... 3.07
O=c1[nH]c2ccccc2cc1CSc1ccc(Nc2nccc(-c3ccc(Cl)cc3)n2)cc1 ... 4.03
FC(F)(F)CN1CCN(CCn2c(C(F)(F)F)cc3c(Cl)ncnc32)CC1 ... 3.27

IN: Find TGI (UO-31 renal) for the entry C=C1CCC2C3(C)COC(c4ccc(F)cc4)OC3CCC2(C)C1C/C=C1/C(=O)OCC1O (stereo not given)
OUT: 3.67

---

test system: MDA-MB-468 breast; experiment: NCI tumour cell line growth inhibition, 48 h
property.label: GI50

Cc1ncc(C(=O)Nc2ccc(CN3CCN(C)CC3)c(C(F)(F)F)c2)cc1C#Cc1c(N)ncc2ccc(C#N)cc12 ... 7.86 µM
O=C1CCC/C=C\C[C@H]2C=C(Cl)C(=O)/C2=C/C[C@H](CCCCC(F)(F)F)OC(=O)CCC/C=C\C[C@H]2C=C(Cl)C(=O)/C2=C/C[C@H](CCCCC(F)(F)F)O1 ... 0.239 µM
FC(F)(F)c1ccc2nc(-c3nc(-c4ccccc4)n4ccccc34)[nH]c2c1 ... 2.02 µM
O=c1[nH]c2ccccc2cc1CSc1ccc(Nc2nccc(-c3ccc(Cl)cc3)n2)cc1 ... 1.15 µM
O=C(Nc1ccccc1)c1cc2c(cc1Cl)Sc1nccn1S2(=O)=O ... 5.47 µM

Next up:
IN: Can you share its GI50? I mean this compound: CCOC(=O)c1cc2c(n1Cc1cccc(OC)c1)-c1oncc1CC2
OUT: 0.346 µM
